Reported pIC50 by item:
Molecular target: UniProt:Q9Y337
Sequence (Q9Y337 23-293): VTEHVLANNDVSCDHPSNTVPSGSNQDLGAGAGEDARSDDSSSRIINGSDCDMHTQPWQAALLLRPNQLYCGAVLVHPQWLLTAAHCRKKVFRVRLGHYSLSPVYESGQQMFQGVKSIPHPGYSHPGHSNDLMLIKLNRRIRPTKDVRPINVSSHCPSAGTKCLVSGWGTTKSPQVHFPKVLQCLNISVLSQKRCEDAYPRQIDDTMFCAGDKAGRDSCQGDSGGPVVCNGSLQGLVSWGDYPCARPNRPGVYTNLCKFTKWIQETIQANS
// pIC50 is dimensionless: -log10 of concentration (M)

CC(=O)N[C@H]1Cc2ccc(cc2)OCCCC[C@@H](C(=O)N[C@@H](CCCNC(=N)N)C(=O)c2nc3ccccc3s2)NC(=O)[C@H](Cc2c[nH]c3ccccc23)NC1=O    5.45

Alright, here's another molecule for you.
pIC50 measured on CC(=O)N[C@H]1Cc2ccc(cc2)OCCCC[C@@H](C(=O)N[C@@H](CCCNC(=N)N)C(=O)c2nc3ccccc3s2)NC(=O)[C@H](Cc2ccccc2)NC1=O = 6.19
